Measured Ki, listed per entry for reference.
- ASSAYED_SYSTEM: Benzodiazepine receptors (BDZ-Rs)
- PROTOCOL_DESCRIPTION: Inhibition of 3H-flunitrazepam (3H-FNZ) binding to washed rat cerebral cortical membranes
- EXPERIMENTAL_CONDITIONS: Rat Cerebral Cortex membranes; 0.5 nM 3H-FNZ; means of 3-5 independent determinations; read-out: Ki^b
- Method: Adult male Wistar rats weighing 250g were used for biochemical experiments. Membrane preparations were carried out according to Medina et al. (1990). […] Binding affinities to BDZ-Rs were determined by the ability of the compounds to inhibit Hoffman-La Roche ^3H-flunitrazepam (^3H-FNZ) binding to extensively washed rat cerebal cortical membranes following the method as described by Levi de Stein, M. et al., Mol. Brain Res (1989),5, pp 9-15. […]
# unit: nM | format: bare number

Look over these answered cases.
1. O=c1cc(-c2cccc(Cl)c2)oc2ccccc12 [Compound A2, 3'-chloroflavone]
614
2. O=c1cc(-c2cccc(Br)c2)oc2ccccc12 [Compound A3, 3'-bromoflavone]
413
3. O=c1cc(-c2ccccc2)oc2ccccc12 [Flavone 6, Flavone, reference compound]
1000
4. O=c1cc(-c2cccc(Br)c2)oc2ccc([N+](=O)[O-])cc12 [Compound A5, 6-nitro-3'-bromoflavone]
25
5. O=c1cc(-c2cccc(Br)c2)oc2ccc(Br)cc12 [Compound A4, 6,3'-dibromoflavone]
19

### Prompt Query the reported Ki for Benzodiazepine receptors (BDZ-Rs); item: O=c1cc(-c2ccccc2)oc2ccc([N+](=O)[O-])cc12 [Compound A1, 6-nitroflavone]
### Response 275
